Target: Steroid hormone receptor ERR1 (Homo sapiens) (UniProt P11474)
Sequence (P11474 whole entry, the tested form may be a part): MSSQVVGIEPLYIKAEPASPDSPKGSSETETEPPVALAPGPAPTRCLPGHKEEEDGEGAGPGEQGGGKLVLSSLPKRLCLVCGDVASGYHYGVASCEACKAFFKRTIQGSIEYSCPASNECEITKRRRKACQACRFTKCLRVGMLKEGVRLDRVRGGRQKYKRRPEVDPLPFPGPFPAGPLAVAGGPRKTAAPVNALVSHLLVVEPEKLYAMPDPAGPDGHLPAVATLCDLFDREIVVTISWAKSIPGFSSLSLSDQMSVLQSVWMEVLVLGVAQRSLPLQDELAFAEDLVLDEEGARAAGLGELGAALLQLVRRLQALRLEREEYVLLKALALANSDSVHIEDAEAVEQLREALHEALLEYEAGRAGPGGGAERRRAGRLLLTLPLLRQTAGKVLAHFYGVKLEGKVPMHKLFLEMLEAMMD
Assay: Percent inhibition of estrogen-related receptor alpha Gal4 activity at 10 uM
READOUT_NAME: inhibition (%)

# annotated cases, reported inhibition shown
INSERT INTO assay_data (structure, reported_measurement) VALUES
  ('COc1cc(/C=C(\C#N)C(=O)Nc2nnc(SC)s2)ccc1OCc1ccc(C(F)(F)F)cc1C(F)(F)F', 105),
  ('CCc1nnc(NC(=O)/C(C#N)=C/c2ccc(OCCOc3c(C)cccc3C)c(OC)c2)o1', 88),
  ('CCc1nnc(NC(=O)/C(C#N)=C/c2ccc(OCCOc3c(C)cccc3C)c(OC)c2)s1', 96),
  ('COc1cc(/C=C(\C#N)C(=O)Nc2nnc(C(C)(C)C)s2)ccc1OCCOc1c(C)cccc1C', 104),
  ('CCc1nnc(NC(=O)/C(C#N)=C/c2ccc(OCc3ccccc3OC(F)(F)F)c(OC)c2)s1', 101);

[a] CCc1nnc(NC(=O)/C(C#N)=C/c2ccc(OCc3cccc4ccccc34)c(OC)c2)s1
[b] CCc1nnc(NC(=O)/C(C#N)=C/c2ccc(OCc3ccccc3Br)c(OC)c2)s1
Query block: When the recorded inhibition values are compared, which is smaller: that of a or that of b ? Your choice should be expressed through its label.
Result block: b
(b: 57%, a: 90%)

====

Biological target: Steroid hormone receptor ERR1 (Homo sapiens, UniProt P11474)
Sequence (P11474 whole entry, the tested form may be a part): as above
Experiment: Inhibition of estrogen-related receptor alpha Gal4 activity
pIC50: −log10 of the molar value.
READOUT_NAME: pIC50

# annotated cases, reported pIC50 shown
INSERT INTO assay_data (structure, reported_measurement) VALUES
  ('COc1cc(/C=C(\C#N)C(=O)Nc2nnc(SC)s2)ccc1OCCOc1c(C)cccc1C', 5.59),
  ('CCc1nnc(NC(=O)/C(C#N)=C/c2ccc(OCCOc3c(C)cccc3C)c(OC)c2)s1', 5.70),
  ('COc1cc(/C=C(\C#N)C(=O)Nc2nnc(C(C)(C)C)s2)ccc1OCCOc1c(C)cccc1C', 5.77),
  ('CCc1nnc(NC(=O)/C(C#N)=C/c2ccc(OCc3ccccc3OC(F)(F)F)c(OC)c2)s1', 5.74),
  ('COc1cc(/C=C(\C#N)C(=O)Nc2nnc(-c3ccccc3)s2)ccc1OCc1ccc(C(F)(F)F)cc1C(F)(F)F', 6.30);

[P] COc1cc(/C=C(\C#N)C(=O)Nc2nncs2)ccc1OCc1ccc(C(F)(F)F)cc1C(F)(F)F
[Q] CCc1nnc(NC(=O)/C(C#N)=C/c2ccc(OCc3cccc4ccccc34)c(OC)c2)s1
[R] COc1cc(/C=C(\C#N)C(=O)Nc2nnc(SC)s2)ccc1OCc1ccc(C(F)(F)F)cc1C(F)(F)F
Query block: Reorder: pIC50, max to min. Would you mind listing the labels in the order asked for?
Result block: R, P, Q

====

Molecular target: Steroid hormone receptor ERR1 (Homo sapiens)
Assay: Inhibition of estrogen-related receptor alpha Gal4 activity
READOUT_NAME: IC50 (nM)

# annotated cases, reported IC50 shown
INSERT INTO measurements (structure, reported_measurement) VALUES
  ('CCc1nnc(NC(=O)/C(C#N)=C/c2ccc(OCc3ccccc3Br)c(OC)c2)s1', 2200),
  ('COc1cc(/C=C(\C#N)C(=O)Nc2nnc(C(F)(F)F)s2)ccc1OCCOc1c(C)cccc1C', 1500);

[1] COc1cc(/C=C(\C#N)C(=O)Nc2nnc(-c3ccc(N(C)C)cc3)s2)ccc1OCCOc1c(C)cccc1C
[2] CCc1nnc(NC(=O)/C(C#N)=C/c2ccc(OCCOc3c(C)cccc3C)c(OC)c2)o1
Query block: Between these two entries, 1 and 2 , state which has the higher IC50. Your choice should be expressed through its label.
Result block: 2
(2: 3300 nM, 1: 2000 nM)
